target.desc: T1, mouse CD47 (mouse, UniProt Q61735 19-140, limits assumed)
T1 construct: also called mouse CD47 protein
T1 sequence (looked up): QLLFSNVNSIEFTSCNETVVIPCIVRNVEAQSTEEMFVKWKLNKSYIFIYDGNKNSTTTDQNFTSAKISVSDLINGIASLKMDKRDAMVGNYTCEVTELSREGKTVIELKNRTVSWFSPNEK
assay.protocol: SPR, 25 C, 1:1 Langmuir fit
metric.name: Kd (nM)
Answers are plain numbers, in nM.

Kd recorded for this binder, SIRP-α D1 variant fused to Fc variant, SEQ ID NO: 104 (Fc fusion) EEELQIIQPDKSVLVAAGETATLRCTITSLFPVGPIQWFRGAGPGRELIYNQREGPFPRVTTVSDTTKRNNMDFSIRIGAITPADAGTYYCVKFRKGSPDDVEFKSGAGTELSVRAKPSDKTHTCPPCPAPEAAGAPSVFLFPPKPKDTLMISRTPEVTCVVVDVSHEDPEVKFNWYVDGVEVHNAKTKPREEQYASTYRVVSVLTVLHQDWLNGKEYKCKVSNKALPAPIEKTISKAKGQPREPQVYTLPPSREEMTKNQVSLTCLVKGFYPSDIAVEWESNGQPENNYKTTPPVLDSDGSFFLYSKLTVDKSRWQQGNVFSCSVMHEALHNHYTQKSLSLSPGK , is 8.04
